molecular target: UniProt:P45452
Property Name: IC50 (nM)
Output spec: scalar in nM, unitless text.

Prompt: Which measured IC50 belongs to "CCCCC1(Oc2ccc(Oc3ccc(F)cc3)cc2)C(=O)NC(=O)NC1=O" , tested on UniProt:P45452?
Completion: 2

---
Prompt: Notebook: pull reported IC50 for UniProt:P45452, entry "CC1(Oc2ccc(Cl)cc2)C(=O)NC(=O)NC1=O"
Completion: 390
